# PROTOCOL_DESCRIPTION: Permeability across Caco-2 cell monolayers
# Type: in vitro ADME
# CONDITION_NOTES: human, Caco-2, pH 7.4
MEASUREMENT_TYPE: Papp A→B at 120 min

- COMPOUND: "COC(=O)/C=C/C(=O)O [MMF, monomethylfumarate]"
  RESULT: "< 2 ×10⁻⁶ cm/s"

====

Target protein (sequence): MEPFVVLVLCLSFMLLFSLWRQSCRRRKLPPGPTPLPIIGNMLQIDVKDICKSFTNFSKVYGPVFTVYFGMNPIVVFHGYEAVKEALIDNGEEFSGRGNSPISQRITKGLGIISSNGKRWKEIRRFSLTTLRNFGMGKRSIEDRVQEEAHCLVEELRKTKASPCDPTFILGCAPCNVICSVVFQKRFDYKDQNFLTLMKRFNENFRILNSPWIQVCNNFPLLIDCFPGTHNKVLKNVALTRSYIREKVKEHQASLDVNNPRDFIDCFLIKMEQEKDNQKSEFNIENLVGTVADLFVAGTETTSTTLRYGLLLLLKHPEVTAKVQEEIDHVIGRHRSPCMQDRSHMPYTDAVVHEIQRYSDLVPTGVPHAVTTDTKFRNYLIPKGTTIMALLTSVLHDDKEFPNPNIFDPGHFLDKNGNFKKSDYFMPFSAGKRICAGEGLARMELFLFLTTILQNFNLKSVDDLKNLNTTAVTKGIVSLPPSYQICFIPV
pIC50: −log10 of the molar value.

- MOLECULE: "COC(=O)/C=C/C(=O)O [MMF, monomethylfumarate]"
  pIC50: "< 3.12"

====

# System: CYP3A4/5
# PROTOCOL_DESCRIPTION: CYP3A4/5 inhibition in human liver microsomes
# Type: biochemical
# CONDITION_NOTES: human, human liver microsomes
// reported IC50 at 10 min for each item listed

- COMPOUND: "COC(=O)/C=C/C(=O)O [MMF, monomethylfumarate]"
  TARGET_ENTITY: "CYP3A4/5"
  IC50 at 10 min: "> 750 µM"
- COMPOUND: "COC(=O)/C=C/C(=O)OC [DMF, dimethylfumarate]"
  TARGET_ENTITY: "CYP3A4/5"
  IC50 at 10 min: "> 666 µM"

====

# TARGET_ENTITY: P‐gp (Homo sapiens)
# Sequence (P08183 whole entry): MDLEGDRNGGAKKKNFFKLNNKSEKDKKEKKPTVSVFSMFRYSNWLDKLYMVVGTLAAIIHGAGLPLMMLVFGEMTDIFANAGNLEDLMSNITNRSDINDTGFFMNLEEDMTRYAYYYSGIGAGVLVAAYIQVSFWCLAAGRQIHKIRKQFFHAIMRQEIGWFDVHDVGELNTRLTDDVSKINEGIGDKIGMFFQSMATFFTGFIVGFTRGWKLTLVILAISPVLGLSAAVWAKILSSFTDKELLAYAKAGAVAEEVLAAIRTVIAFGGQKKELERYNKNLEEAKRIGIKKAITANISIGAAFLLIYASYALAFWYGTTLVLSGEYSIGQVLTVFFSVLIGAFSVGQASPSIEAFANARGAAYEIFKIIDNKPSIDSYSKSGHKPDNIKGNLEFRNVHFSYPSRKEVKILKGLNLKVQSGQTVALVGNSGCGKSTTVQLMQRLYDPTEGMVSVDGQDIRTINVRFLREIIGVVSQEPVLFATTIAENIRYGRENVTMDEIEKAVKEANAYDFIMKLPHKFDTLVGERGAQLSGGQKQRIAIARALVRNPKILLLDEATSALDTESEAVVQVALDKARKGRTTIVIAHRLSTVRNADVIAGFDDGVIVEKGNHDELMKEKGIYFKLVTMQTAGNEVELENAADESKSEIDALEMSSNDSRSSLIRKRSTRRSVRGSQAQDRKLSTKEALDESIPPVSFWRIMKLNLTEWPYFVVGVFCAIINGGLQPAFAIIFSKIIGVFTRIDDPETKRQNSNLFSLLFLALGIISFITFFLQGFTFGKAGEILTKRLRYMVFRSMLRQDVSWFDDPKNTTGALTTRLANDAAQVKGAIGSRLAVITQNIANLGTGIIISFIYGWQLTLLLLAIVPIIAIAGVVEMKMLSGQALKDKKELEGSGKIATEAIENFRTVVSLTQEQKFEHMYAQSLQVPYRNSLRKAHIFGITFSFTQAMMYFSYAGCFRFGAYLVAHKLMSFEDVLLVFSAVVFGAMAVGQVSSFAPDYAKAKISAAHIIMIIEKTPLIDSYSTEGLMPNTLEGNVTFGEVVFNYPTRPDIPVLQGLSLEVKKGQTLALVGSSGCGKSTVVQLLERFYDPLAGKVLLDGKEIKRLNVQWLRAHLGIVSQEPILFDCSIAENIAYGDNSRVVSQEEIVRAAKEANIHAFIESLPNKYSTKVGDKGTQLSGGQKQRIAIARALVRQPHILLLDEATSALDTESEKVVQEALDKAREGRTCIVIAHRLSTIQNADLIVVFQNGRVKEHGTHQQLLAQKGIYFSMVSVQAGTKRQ
# PROTOCOL_DESCRIPTION: P-gp inhibition, [3H]digoxin efflux in MDCKII-MDR1 and MDCKII-WT cells

- COMPOUND: "COC(=O)/C=C/C(=O)OC [DMF, dimethylfumarate]"
  IC50 [µM]: 900

====

# TARGET_ENTITY: CYP2B6 (Homo sapiens, UniProt P20813)
# Sequence (P20813 whole entry): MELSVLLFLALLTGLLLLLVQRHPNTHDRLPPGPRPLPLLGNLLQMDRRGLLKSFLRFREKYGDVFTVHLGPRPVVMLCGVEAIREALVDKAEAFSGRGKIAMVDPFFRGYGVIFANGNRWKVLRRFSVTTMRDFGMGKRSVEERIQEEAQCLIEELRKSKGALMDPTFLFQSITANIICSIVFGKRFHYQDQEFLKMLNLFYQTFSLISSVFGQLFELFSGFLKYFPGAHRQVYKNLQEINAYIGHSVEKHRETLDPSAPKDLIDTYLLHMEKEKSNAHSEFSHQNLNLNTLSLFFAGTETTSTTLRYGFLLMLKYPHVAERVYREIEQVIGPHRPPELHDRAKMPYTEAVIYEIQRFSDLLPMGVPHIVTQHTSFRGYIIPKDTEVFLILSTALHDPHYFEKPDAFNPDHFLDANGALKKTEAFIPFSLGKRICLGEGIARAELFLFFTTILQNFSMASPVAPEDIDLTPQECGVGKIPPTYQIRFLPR
pIC50: −log10 of the molar value.
MEASUREMENT_TYPE: pIC50

- MOLECULE: "COC(=O)/C=C/C(=O)O [MMF, monomethylfumarate]"
  TARGET_ENTITY: "CYP2B6 (Homo sapiens, UniProt P20813)"
  MEASUREMENT_TYPE: "pIC50"
  RESULT: "< 3.12"

====

# TARGET_ENTITY: CYP1A2 (Homo sapiens, UniProt P05177)
# Sequence (P05177 whole entry): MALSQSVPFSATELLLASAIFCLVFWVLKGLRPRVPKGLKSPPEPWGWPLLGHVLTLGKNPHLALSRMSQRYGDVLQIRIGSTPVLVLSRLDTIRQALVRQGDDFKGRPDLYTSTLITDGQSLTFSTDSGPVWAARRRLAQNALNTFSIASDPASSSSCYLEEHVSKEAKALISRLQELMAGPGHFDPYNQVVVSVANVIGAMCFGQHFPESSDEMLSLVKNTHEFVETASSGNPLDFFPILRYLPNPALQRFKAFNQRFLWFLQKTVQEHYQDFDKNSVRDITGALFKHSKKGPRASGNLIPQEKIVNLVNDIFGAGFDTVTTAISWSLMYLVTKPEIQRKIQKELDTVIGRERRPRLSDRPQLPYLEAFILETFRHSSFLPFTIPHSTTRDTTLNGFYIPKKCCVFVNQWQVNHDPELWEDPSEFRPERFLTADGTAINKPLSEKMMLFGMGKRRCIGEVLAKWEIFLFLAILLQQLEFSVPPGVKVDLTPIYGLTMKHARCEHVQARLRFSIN
pIC50: −log10 of the molar value.
MEASUREMENT_TYPE: pIC50

- COMPOUND: "COC(=O)/C=C/C(=O)O [MMF, monomethylfumarate]"
  MEASUREMENT_TYPE: "pIC50"
  RESULT: "< 3.12"
